# Tested on: blackgrass
# ASSAY INFO: Test B pre/postemergence blackgrass
# Format: in vivo, Alopecurus myosuroides
# TEST CONDITIONS: Preemergence, Rate 250 g/ha; scale of 0 to 10 where 0 is no effect and 10 is complete control
# label = criterion met if Blackgrass plant response rating < 6 else criterion not met

Q: A record lists Cc1nsc(Cl)c1Cn1c(=O)on(C(=O)N(c2ccc(F)cc2)C(C)C)c1=O . Is its Blackgrass plant response rating below 6?
Result: criterion met

---

# Test system: wild oat
# ASSAY INFO: Test B pre/postemergence wild oat
# Type: in vivo, Avena fatua
# TEST CONDITIONS: Preemergence, Rate 62 g/ha; scale 0 to 10 (0 no effect, 10 complete control)
# Wild oats plant response rating per record follows

Here's what some known entries look like.
>>> print(df.to_string())
                         chemical_structure  value_measured
0  C=CCn1c(=O)on(C(=O)N(c2ccccc2)C(C)C)c1=O               8
1  CC(C)N(C(=O)n1oc(=O)n(CC2=NOCCC2)c1=O)c1ccc(F)cc1               3
2  CCCn1c(=O)on(C(=O)N(c2ccc(Cl)cc2)C(C)C)c1=O               5
3  CC(C)N(C(=O)n1oc(=O)n(Cc2cccs2)c1=O)c1ccc(F)cc1               0
4  COC(=O)CCCn1c(=O)on(C(=O)N(c2ccccc2)C(C)C)c1=O               0

// Cc1nn(C)c(C)c1-n1c(=O)on(C(=O)N(c2ccccc2)C(C)C)c1=O : Wild oats plant response rating value = 0

---

# Test system: giant foxtail
# ASSAY INFO: Test B pre/postemergence giant foxtail
# Format: in vivo, Setaria faberii
# TEST CONDITIONS: Preemergence, Rate 62 g/ha; scale 0 to 10 (0 no effect, 10 complete control)
Let's look at some compounds and their measured Giant foxtail plant response rating.

>>> df
                                   compound  value_measured
0  CC(=O)C(C)n1c(=O)on(C(=O)N(c2ccccc2)C(C)C)c1=O (centres unmarked)               2

Entry CCc1noc(CC)c1-n1c(=O)on(C(=O)N(c2ccc(F)cc2)C(C)C)c1=O ; Giant foxtail plant response rating = 2

Query CC(C)N(C(=O)n1oc(=O)n(CCCCF)c1=O)c1ccccc1 yields Giant foxtail plant response rating of 4

Notebook: CCC(=O)Cn1c(=O)on(C(=O)N(c2ccc(Cl)cc2)C(C)C)c1=O , Giant foxtail plant response rating read as 10

---

# Test system: wild oat
# ASSAY INFO: Test B pre/postemergence wild oat
# Type: in vivo, Avena fatua
# TEST CONDITIONS: Preemergence, Rate 500 g/ha; scale 0 to 10 (0 no effect, 10 complete control)
Reported Wild oats plant response rating values follow for various compounds

>>> print(df.to_string())
                         chemical_structure  value_measured
0  CCCn1c(=O)on(C(=O)N(c2ccc(Cl)cc2)C(C)C)c1=O               9
1  CC(C)N(C(=O)n1oc(=O)n(C2CCCCC2)c1=O)c1ccc(F)cc1               5
2  CC(C)N(C(=O)n1oc(=O)n(C2CCCCC2)c1=O)c1ccc(Cl)cc1               4

Kindly consider the entry below.
Noted for Cc1nn(C)c(C)c1-n1c(=O)on(C(=O)N(c2ccccc2)C(C)C)c1=O : its Wild oats plant response rating reads 8

---

# Tested on: purple nutsedge
# ASSAY INFO: Test B pre/postemergence purple nutsedge
# Format: in vivo, Cyperus rotundus
# TEST CONDITIONS: Preemergence, Rate 250 g/ha; scale 0 to 10, 0 is no effect, 10 is complete control
# Description: […] At the same time, these crop and weed species were also treated with postemergence applications of test chemicals formulated in the same manner. […] Treated plants and controls were maintained in a greenhouse for twelve to sixteen days, after which all species were compared to controls and visually evaluated. […]
PARAMETER: Nutsedge plant response rating

Worked set:
In [3]: df
Out[3]:
                                   compound      target_desc                       parameter  value_measured
0  COC(CCl)n1c(=O)on(C(=O)N(c2ccc(Cl)cc2)C(C)C)c1=O (stereo not drawn)  purple nutsedge  Nutsedge plant response rating               0
1  CC(C)N(C(=O)n1oc(=O)n(CNC(=O)c2ccccc2)c1=O)c1ccc(F)cc1  purple nutsedge  Nutsedge plant response rating               0
2  Cc1nc(Cl)sc1C(C)n1c(=O)on(C(=O)N(c2ccc(Cl)cc2)C(C)C)c1=O (stereo not drawn)  purple nutsedge  Nutsedge plant response rating               0
3  CC(C)N(C(=O)n1oc(=O)n(CCCl)c1=O)c1ccc(Cl)cc1  purple nutsedge  Nutsedge plant response rating               0
4  CC(C)N(C(=O)n1oc(=O)n(C2CCOCC2)c1=O)c1ccccc1  purple nutsedge  Nutsedge plant response rating               3

Attention now shifts to the item below.
Field Nutsedge plant response rating (entry COCC(OC)n1c(=O)on(C(=O)N(c2ccc(F)cc2)C(C)C)c1=O (stereo not drawn) ) reads 0

---

Parameter Rice plant response rating: see the listing below.
# System: rice
# ASSAY INFO: Test B flood test rice
# Type: in vivo, Oryza sativa
# TEST CONDITIONS: Rate 500 g/ha; Pre-emergence; flood test species; scale 0 to 10 (0 no effect, 10 complete control)
Please reply with the value in numeric form only.

Consider the worked cases shown below.
In [3]: df
Out[3]:
                                   compound  value_measured
0  CC(C)N(C(=O)n1oc(=O)n(C2CC3CCC2C3)c1=O)c1ccc(F)cc1F (stereo not drawn) [Compound 326]               0
1  COC(=O)C(C)n1c(=O)on(C(=O)N(c2ccc(F)cc2F)C(C)C)c1=O (stereo not drawn) [Compound 463]               0

# next compound below
Query CC(C)N(C(=O)n1oc(=O)n(-c2ccc3ccccc3c2)c1=O)c1ccc(F)cc1F [Compound 335] yields Rice plant response rating of 0

---

# Tested on: winter wheat
# ASSAY INFO: Test E winter wheat
# Assay type: in vivo, Triticum aestivum
# TEST CONDITIONS: Postemergence, Rate 1000 g/ha; 0 to 100 scale, 0 is no effect and 100 is complete control
PARAMETER: Plant response rating, Wheat (winter)
The answer should be a number; do not append a unit.

>>> print(df.to_string())
                         chemical_structure  value_measured
0  Cc1nn(C)c(C)c1-n1c(=O)on(C(=O)N(c2ccc(F)cc2)C(C)C)c1=O              70

For record CC(C)N(C(=O)n1oc(=O)n(Cc2ccco2)c1=O)c1ccc(F)cc1 the listed Plant response rating, Wheat (winter) is 50

Quick note, Plant response rating, Wheat (winter) for CC(C)N(C(=O)n1oc(=O)n(CC(F)(F)F)c1=O)c1ccc(F)cc1 landed at 70

Value of measured Plant response rating, Wheat (winter) for the entry Cc1cccc(C)c1-n1c(=O)on(C(=O)N(c2ccccc2)C(C)C)c1=O : 70

---

List of Blackgrass plant response rating values.
# System: blackgrass
# ASSAY INFO: Test B pre/postemergence blackgrass
# Assay type: in vivo, Alopecurus myosuroides
# TEST CONDITIONS: Preemergence, Rate 62 g/ha; scale of 0 to 10 where 0 is no effect and 10 is complete control
Reply with the value as a number alone.

>>> print(df.to_string())
                                   molecule                         parameter  value_measured
0  CC(C)N(C(=O)n1oc(=O)n(C2CCCCO2)c1=O)c1ccc(F)cc1 (centres unmarked)  Blackgrass plant response rating               0

// molecule CC(C)N(C(=O)n1oc(=O)n(CCCF)c1=O)c1ccc(F)cc1 , assay blackgrass, Blackgrass plant response rating value: 10

Form field Blackgrass plant response rating for item Cc1ccccc1-n1c(=O)on(C(=O)N(c2ccc(N(C)C)cc2)C(C)C)c1=O on blackgrass: 0

I looked up CCCCn1c(=O)on(C(=O)N(c2ccc(F)cc2)C(C)C)c1=O and its Blackgrass plant response rating for blackgrass was 5

---

# Test system: bamyardgrass
# ASSAY INFO: Test B flood test barnyardgrass
# Format: in vivo, Echinochloa crus-galli
# TEST CONDITIONS: Rate 500 g/ha, headed Pre-emergence (flood test species); scale 0 to 10 (0 no effect, 10 complete control)
// reported Plant response rating, Barnyardgrass per item

                         chemical_structure  value_measured
0  Cc1cccc(C)c1-n1c(=O)on(C(=O)N(c2ccccc2)C(C)C)c1=O               0
1  C=CCn1c(=O)on(C(=O)N(c2ccccc2)C(C)C)c1=O               0

Entry Cc1nc(C)c(Cn2c(=O)on(C(=O)N(c3ccc(Cl)cc3)C(C)C)c2=O)s1 ; assay system bamyardgrass; Plant response rating, Barnyardgrass recorded at 0

Record CCC(CC)N(C(=O)n1oc(=O)n(-c2ccccc2C)c1=O)c1ccc(F)cc1 / bamyardgrass, Plant response rating, Barnyardgrass recorded as 0

Measured Plant response rating, Barnyardgrass for this entry COc1nc(OC)nc(N(C(=O)n2oc(=O)n(C(C)C)c2=O)C(C)C)n1 on bamyardgrass: 0

// provenance: patent US6737383B1
